All figures here come from BindingDB's records for doi:10.1016/j.bmcl.2011.09.133.

assay.explanation: Antagonist activity against human CCR5 assessed as inhibition of HIV1 gp120-induced cell-cell fusion between human HeLa P4/R5 cells and CHO-tat10 cells expressing HIV-1JRFL viral envolop protein after 20 hrs by beta-galactosidase reporter gene assay
property.label: IC50 (nM)
The reply should contain only the number, in nM.

COc1cccc(CN(c2ccc(Br)cc2)C2CCN(C(C)CCNC(=O)c3c(Cl)cncc3Cl)CC2)c1 (centres undefined) ... 387
CC(CCNC(=O)c1c(Cl)cncc1Cl)N1CCC(N(Cc2ccccc2)c2ccc(Br)cc2)CC1 (centres undefined) ... 49
COc1ccc(N(Cc2cccc(C#N)n2)C2CCN([C@H](C)CCNC(=O)c3c(C)cc(Cl)nc3C)CC2)cc1 ... 0.3

Now for another entry.
Record summary for COC(=O)c1ccc(N(Cc2ccccc2)C2CCN(C(C)CCNC(=O)c3c(Cl)cncc3Cl)CC2)cc1 (centres undefined) : reported IC50 = 90
